B1: KRT18 (parent)
chain: PQVRDWSHYFKIIEDLRAQIFANT

Variants of: B1
Test: protein stability index of a GFP-peptide fusion (GPS, HEK-293T) (PSI 1-6); higher = more stable;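 further: lentivirally expressed fusions sorted by FACS into six bins by GFP to DsRed ratio, PSI derived from sequencing read proportions per bin multiplied by bin number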
Conditions: c terminus: a fixed tail appended
I'd be grateful if you could share measured protein stability index for these entries.
Answer field: number only, no words.

Quick note, protein stability index for A22E landed at 2.12

Consider R17H . Its measured protein stability index is 2.58

Entry under test: N23S . Its protein stability index was 2.33

GET /value?item= A22S &field=protein stability index returns 2.17

Memo: E14I , reported protein stability index: 2.46

Given item Q19I , the value recorded as its protein stability index is 1.42

Recorded result, Q2F , protein stability index: 2.55

protein stability index for W6T is 3.16

Form field protein stability index, entry Q2V : 3.24

What the record says about L16G : protein stability index is 2.32

Kindly note the recorded protein stability index for N23E , which is 2.8

The reported protein stability index of the variant I13E was 2.32

Entry W6F , protein stability index reported as 2.3

Memo: L16S , reported protein stability index: 2.03

Lab note: measured protein stability index of L16H was 2.13

Recorded result, H8Y , protein stability index: 2.08

Query A18F yields protein stability index of 2.24

Measured protein stability index, I12Y : 2.2

Reported protein stability index ( T24A ) = 1.9

Lab note: measured protein stability index of H8I was 2.4

Lab note: measured protein stability index of D5C was 2.2

protein stability index reported for this variant V3F : 2.24
